Sourced from PubChem BioAssay (NCI)

- System: UO-31 renal
- PROCEDURE_SUMMARY: NCI-60 one-dose screen, 48 h
- TEST_SETTINGS: 10 µM unless noted
This is part of a sample that, as a whole, favours compounds with a hit. Of some 83,000 tested, about 20% had one in any assay. The source made the active and inactive calls. Rule for the calls: active = growth percent below 10; inactive = the rest.
Classes used: active, inactive

# MOLECULE, TARGET_OF_ASSAY, CATEGORY
records = [
    ("CCCn1nc(C(=O)N2CCCCC2)c2c1CCC(N1CCC(c3ccncc3)CC1)C2 (stereo not given)", "UO-31 renal", "inactive"),
    ("Cc1nc2sc(C(=O)Nc3cccc4ccccc34)c(N)c2cc1C(=O)/C=C/c1ccccc1", "UO-31 renal", "active"),
    ("CN1CCN(c2ccc(/C=C/C(=O)c3ccc(O)cc3)cc2)CC1", "UO-31 renal", "inactive"),
    ("COc1c(NC=O)c2c(c([N+](=O)[O-])c1OC)C(=O)OC2", "UO-31 renal", "inactive"),
    ("CCCCCC#CC1OC23CCCCC2C(C#N)(C(=N)O3)C1(C#N)C#N (stereo not given)", "UO-31 renal", "inactive"),
]
